Data provenance: PubChem BioAssay AID220

# Test system: CD8F1 mice, subcutaneous mammary adenocarcinoma, T/C%
# procedureText: NCI In Vivo Anticancer Drug Screen. Data for tumor model Mammary Adenocarcinoma CD8F1 (subcutaneous) in CD8F1
# protocolConditions: endpoint: median tumor weight change; dose: 125.0 mg/kg/injection; schedule: Q01DX001 (ip); vehicle: suspension in saline; higher = larger tumour
Records with an inconclusive call do not appear.
Property: T/C; scope: individual compounds

# compound, T/C
measured = [
    ("O=C(O)C(CSC(c1ccccc1)(c1ccccc1)c1ccccc1)N=Cc1cccs1 (configuration not stated)", "111 % of control"),
]

compound N=C(N)SCc1cccc2c(=O)cc(-c3ccccc3)oc12 , T/C observed: 151 % of control

compound C=CC(=O)NCNC(=O)C=C , T/C observed: 42 % of control

compound COc1cc2c[n+](C)c3c(c2cc1OC)Cc1cc2c(cc1-3)OCO2 , T/C observed: 105 % of control

compound c1cc[c]([Sn]([NH]c2ncnc3[nH]cnc23)([NH]c2ncnc3[nH]cnc23)[c]2ccccc2)cc1 , T/C observed: 101 % of control

compound CN(N=O)C(N)=O , T/C observed: -2 % of control

compound Cc1ccc2nc(-c3ccc4nc(-c5ccc(N=Nc6ccc(-c7nc8ccc(-c9nc%10ccc(C)c(S(=O)(=O)O)c%10s9)cc8s7)cc6)cc5)sc4c3)sc2c1S(=O)(=O)O , T/C observed: 94 % of control
